tested on: Calu-6; experiment: relative viability (nuclei count vs DMSO), 5 days (fraction); higher = more cells survive; details: first compound 0.006325 µM
measure name: relative viability
Format: numeric value only, no unit, no commentary.

molecule	relative viability
CC(=O)O[C@@]12CO[C@@H]1C[C@H](O)[C@@]1(C)C(=O)[C@H](O)C3=C(C)[C@@H](OC(=O)[C@H](O)[C@@H](NC(=O)OC(C)(C)C)c4ccccc4)C[C@@](O)([C@@H](OC(=O)c4ccccc4)[C@H]21)C3(C)C [Docetaxel] + CS(=O)(=O)CCNCc1ccc(-c2ccc3ncnc(Nc4ccc(OCc5cccc(F)c5)c(Cl)c4)c3c2)o1 [Lapatinib] (partner 2 µM)	0.125
CC(=O)O[C@@]12CO[C@@H]1C[C@H](O)[C@@]1(C)C(=O)[C@H](O)C3=C(C)[C@@H](OC(=O)[C@H](O)[C@@H](NC(=O)OC(C)(C)C)c4ccccc4)C[C@@](O)([C@@H](OC(=O)c4ccccc4)[C@H]21)C3(C)C [Docetaxel] + CC1(C)CCC(c2ccc(Cl)cc2)=C(CN2CCN(c3ccc(C(=O)NS(=O)(=O)c4ccc(N[C@H](CCN5CCOCC5)CSc5ccccc5)c(S(=O)(=O)C(F)(F)F)c4)cc3)CC2)C1 [Navitoclax] (partner 0.5 µM)	0.0836
CC(=O)O[C@@]12CO[C@@H]1C[C@H](O)[C@@]1(C)C(=O)[C@H](O)C3=C(C)[C@@H](OC(=O)[C@H](O)[C@@H](NC(=O)OC(C)(C)C)c4ccccc4)C[C@@](O)([C@@H](OC(=O)c4ccccc4)[C@H]21)C3(C)C [Docetaxel] + COc1cc2c(Oc3ccc(NC(=O)C4(C(=O)Nc5ccc(F)cc5)CC4)cc3F)ccnc2cc1OCCCN1CCOCC1 [Foretinib] (partner 0.25 µM)	0.081

stdin: Find the recorded relative viability belonging to CC(=O)O[C@@]12CO[C@@H]1C[C@H](O)[C@@]1(C)C(=O)[C@H](O)C3=C(C)[C@@H](OC(=O)[C@H](O)[C@@H](NC(=O)OC(C)(C)C)c4ccccc4)C[C@@](O)([C@@H](OC(=O)c4ccccc4)[C@H]21)C3(C)C [Docetaxel] + C[C@]1(O)C[C@@H](c2nc(-c3ccc4ccc(-c5ccccc5)nc4c3)c3c(N)nccn32)C1 [Linsitinib] (partner 1 µM) and report it.
stdout: 0.142
